Source: patent US20250320224A1

Entries annotated with measured IC50
Molecular target: human PAR-2 (hPAR-2) receptor (Homo sapiens, UniProt P55085)
Construct: endogenous in cells
Sequence (P55085 26-397): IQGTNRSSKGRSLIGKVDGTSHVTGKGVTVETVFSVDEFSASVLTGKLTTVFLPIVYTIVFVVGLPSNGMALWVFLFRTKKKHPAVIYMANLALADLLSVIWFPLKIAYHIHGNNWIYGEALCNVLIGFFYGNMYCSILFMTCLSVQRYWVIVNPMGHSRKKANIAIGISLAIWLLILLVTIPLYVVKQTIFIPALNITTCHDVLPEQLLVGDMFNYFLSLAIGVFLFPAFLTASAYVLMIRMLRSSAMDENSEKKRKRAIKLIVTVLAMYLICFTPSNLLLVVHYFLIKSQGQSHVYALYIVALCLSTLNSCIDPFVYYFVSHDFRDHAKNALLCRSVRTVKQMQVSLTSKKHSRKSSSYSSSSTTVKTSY
Experiment: In vitro human PAR-2 functional antagonist activity using calcium assays
Conditions: hPAR-2 endogenously expressed in HEK-293 cells; stimulated by 2-Furoyl-LIGRLO-NH2 peptide; Fluo4AM intracellular calcium, FLIPR Tetra

- MOLECULE: "CC1(C)CN(c2ccc(C(F)(F)F)c(Cl)c2)c2ncc(C(=O)N3CCN(c4ccc(CC(=O)O)cn4)CC3(C)C)nc21"
  IC50: "< 500 nM"
- MOLECULE: "Cc1ccc(N2CC(C)(C)c3nc(C(=O)N4CCN(c5cc(C)c(C(=O)O)c(C)n5)CC4(C)C)ccc32)cc1F"
  IC50: "< 500 nM"
- MOLECULE: "COC(=O)CCCCCCC(=O)N1CCN(C(=O)c2cnc3c(n2)C2(CN3c3ccc(Cl)c(F)c3)CC(C)(C)C2)C(C)(C)C1"
  IC50: "< 500 nM"

What is its IC50 for human PAR-2 (hPAR-2) receptor (Homo sapiens, UniProt P55085)? Entry: Cc1cc(N2CCN(C(=O)c3cnc4c(n3)C(C)(C)CN4CCc3ccc(F)cc3)C(C)(C)C2)nc(C)c1C(=O)O
500 to 10000 nM

Please tell me: IC50 of CC1(C)CN(c2ccc(Cl)c(F)c2)c2ccc(C(=O)N3CCN(c4ccc(C(C)(C)C(=O)O)cn4)CC3(C)C)nc21 , system human PAR-2 (hPAR-2) receptor (Homo sapiens, UniProt P55085)?
< 500 nM

# query: IC50 | item O=C1NC(=O)C2(CCN(C(=O)c3ccc4c(n3)C3(CCCC3)CN4c3ccc(Cl)c(F)c3)CC2)N1 | system: human PAR-2 (hPAR-2) receptor (Homo sapiens, UniProt P55085)
< 500 nM

So what IC50 did CC1(C)CN(c2ccc(Cl)c(F)c2)c2ccc(C(=O)N3CC[C@H](c4ccccn4)[C@H](C(=O)O)C3)nc21 (relative stereo) get with human PAR-2 (hPAR-2) receptor (Homo sapiens, UniProt P55085)?
500 to 10000 nM

What IC50 appears in the records for this molecule with human PAR-2 (hPAR-2) receptor (Homo sapiens, UniProt P55085)? CC1(C)C(=O)NCCN1C(=O)c1ccc2c(n1)[C@]1(C)CCO[C@@H]1N2c1ccc(Cl)c(F)c1 (single isomer, unassigned) [Example 63]
500 to 10000 nM

###

pIC50 values, listed per item
biological target: human PAR-2 (hPAR-2) receptor (Homo sapiens); construct: endogenous in cells; assay: In vitro human PAR-2 functional antagonist activity using calcium assays; conditions: hPAR-2 endogenously expressed in HEK-293 cells; stimulated by 2-Furoyl-LIGRLO-NH2 peptide; Fluo4AM intracellular calcium, FLIPR Tetra
pIC50: −log10 of the molar value. Where a name gives a salt, the structure may show the parent alone.

# annotated cases, reported pIC50 shown
- MOLECULE: "CC1(C)CN(c2ccc(CC(=O)O)cn2)CCN1C(=O)c1cc2n(n1)C(C)(C)CCN2c1ccc(Cl)c(F)c1 [Example 179]"
  OBSERVED_PROPERTY: "pIC50"
  MEASURED_VALUE: "< 5.00"
- MOLECULE: "CC1(C)C(=O)NCCN1C(=O)c1ccc2c(n1)[C@]1(C)CCO[C@@H]1N2c1ccc(Cl)c(F)c1 (racemic) [Example 61]"
  OBSERVED_PROPERTY: "pIC50"
  MEASURED_VALUE: "> 6.30"
- MOLECULE: "CCCCCCCCCCCCCCCC(=O)N(C)CCN(C)C(=O)CCOCCOCCOCCNC(=O)CCOCCOCCOCCNC(=O)CCCCCCC(=O)N1CCN(C(=O)c2cnc3c(n2)C2(CN3c3ccc(Cl)c(F)c3)CC(C)(C)C2)C(C)(C)C1 [Example 261]"
  OBSERVED_PROPERTY: "pIC50"
  MEASURED_VALUE: "5.00 to 6.30"
- MOLECULE: "CC1(C)CN(c2ccc(Cl)c(F)c2)c2cc(O)c(C(=O)N3CCN(c4ccc(CC(=O)O)cn4)CC3(C)C)nc21 [Example 258]"
  OBSERVED_PROPERTY: "pIC50"
  MEASURED_VALUE: "5.00 to 6.30"
- MOLECULE: "CC1(C)CN(c2ccc(Cl)c(F)c2)c2ccc(C(=O)N3CCNCC3(C)C)nc21 [Example 22, hydrochloride]"
  OBSERVED_PROPERTY: "pIC50"
  MEASURED_VALUE: "5.00 to 6.30"
- MOLECULE: "Cc1cc(N2CCN(C(=O)c3ccc4c(n3)C3(CC(C)C3)CN4c3ccc(Cl)c(F)c3)C(C)(C)C2)nc(C)c1C(=O)O (single isomer, unassigned) [Example 156]"
  OBSERVED_PROPERTY: "pIC50"
  MEASURED_VALUE: "> 6.30"

// lookup pIC50 for CCC1(C)CN(c2ccc(Cl)c(F)c2)c2ccc(C(=O)N3CCNC(=O)C3(C)C)nc21 (stereo not drawn) [Example 53]
> 6.30

# input molecule: Cc1cc(N2CCN(C(=O)c3ccc4c(n3)C(C)(C)CN4c3ccc(Cl)c(F)c3)C(C)(C)C2)nc(C)c1C(=O)O [Example 45] ; wanted: its pIC50
> 6.30

###

target: human PAR-2 (hPAR-2) receptor (Homo sapiens); construct: endogenous in cells; experiment: In vitro human PAR-2 functional antagonist activity using calcium assays; settings: hPAR-2 endogenously expressed in HEK-293 cells; stimulated by 2-Furoyl-LIGRLO-NH2 peptide; Fluo4AM intracellular calcium, FLIPR Tetra
OBSERVED_PROPERTY: IC50

Consider the reported IC50 for these compounds:
- COMPOUND: "CC1(C)CN(C2CCC(C#N)CC2)c2ccc(C(=O)N3CCN(c4ccc(CC(=O)O)cn4)CC3(C)C)nc21 (stereo not drawn)"
  TESTED_TARGET: "human PAR-2 (hPAR-2) receptor (Homo sapiens)"
  MEASURED_VALUE: "500 to 10000 nM"
- COMPOUND: "COCC1CC2(C1)CN(c1ccc(Cl)c(F)c1)c1ccc(C(=O)N3CCN(c4cc(C)c(C(=O)O)c(C)n4)CC3(C)C)nc12 (stereo not drawn)"
  TESTED_TARGET: "human PAR-2 (hPAR-2) receptor (Homo sapiens)"
  MEASURED_VALUE: "< 500 nM"
- COMPOUND: "CC1(C)CN(c2cc(F)c(Cl)c(F)c2)c2ncc(C(=O)N3CCN(c4ccc(CC(=O)O)cn4)CC3(C)C)nc21"
  TESTED_TARGET: "human PAR-2 (hPAR-2) receptor (Homo sapiens)"
  MEASURED_VALUE: "< 500 nM"
- COMPOUND: "CC(C)CN1CC(C)(c2ccc(Cl)c(F)c2)c2ccc(C(=O)N3CCN(c4ccc(CC(=O)O)cn4)CC3(C)C)nc21 (stereo not drawn)"
  TESTED_TARGET: "human PAR-2 (hPAR-2) receptor (Homo sapiens)"
  MEASURED_VALUE: "500 to 10000 nM"
- COMPOUND: "CC1(C)CN(c2ccc(C(=O)N3CCN(c4cncc(C(=O)O)c4)CC3(C)C)c(F)c2)c2ccc(C(=O)N3CCN(c4cncc(C(=O)O)c4)CC3(C)C)nc21"
  TESTED_TARGET: "human PAR-2 (hPAR-2) receptor (Homo sapiens)"
  MEASURED_VALUE: "> 10000 nM"

# evaluate next
Which IC50 value belongs to Cc1cc(C)nc(N2CCN(C(=O)c3ccc4c(n3)C(C)(C)CN4C3CCC(C#N)CC3)C(C)(C)C2)c1 (stereo not drawn) ?
500 to 10000 nM

###

Biological target: human PAR-2 (hPAR-2) receptor (Homo sapiens)
Construct: endogenous in cells
Sequence (P55085 26-397): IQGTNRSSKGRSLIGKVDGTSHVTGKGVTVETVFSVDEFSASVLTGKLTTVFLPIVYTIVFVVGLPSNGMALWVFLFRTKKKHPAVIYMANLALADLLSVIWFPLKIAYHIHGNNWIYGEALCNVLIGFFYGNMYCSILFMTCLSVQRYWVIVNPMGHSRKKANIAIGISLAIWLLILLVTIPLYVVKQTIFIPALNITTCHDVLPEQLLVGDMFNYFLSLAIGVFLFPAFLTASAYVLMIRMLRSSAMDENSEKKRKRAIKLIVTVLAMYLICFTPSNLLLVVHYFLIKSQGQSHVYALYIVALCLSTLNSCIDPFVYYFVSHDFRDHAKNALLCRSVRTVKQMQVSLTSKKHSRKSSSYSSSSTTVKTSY
Assay: In vitro human PAR-2 functional antagonist activity using calcium assays
Conditions: hPAR-2 endogenously expressed in HEK-293 cells; stimulated by 2-Furoyl-LIGRLO-NH2 peptide; Fluo4AM intracellular calcium, FLIPR Tetra
OBSERVED_PROPERTY: IC50

The following compounds have reported results that may help.
- COMPOUND: "CN(C)C(=O)c1csc(N2CCN(C(=O)c3ccc4c(n3)C(C)(C)CN4c3ccc(Cl)c(F)c3)C(C)(C)C2)n1 [Example 80]"
  OBSERVED_PROPERTY: "IC50"
  MEASURED_VALUE: "< 500 nM"
- COMPOUND: "CC1(C)CN(c2ccc(Cl)c(F)c2)c2ccc(C(=O)N3CCN(c4nc(C(F)(F)F)c(C(=O)O)s4)CC3(C)C)nc21 [Example 79]"
  OBSERVED_PROPERTY: "IC50"
  MEASURED_VALUE: "< 500 nM"

Consider the additional compound presented here.
Look up IC50 for this compound: CC1(C)CN(c2ccc(Cl)c(F)c2)c2ccc(C(=O)N3CC[C@@H](c4ccccn4)[C@H](C(=O)O)C3)nc21 (relative stereo) [Example 138]
500 to 10000 nM
